Values from paper PMC11995724

Test system: V. cholerae SAD30
Construct: SAD30
Parameters: species or system S. aureus MSSA476 (TSB) or V. cholerae SAD30 (LB); 384-well bacterial growth screen at 25 uM, OD600 relative to DMSO control
Test Settings: relative growth, OD600, LB; 25 µM; inhibitor
In all, about 3,200 compounds went through this assay and about 110 (3.4%) showed an effect of 50% or more. This is one part of a sample in which strong results are shown more often than they occur.
% of control remaining by entry:
The response must be a number in % with no trailing unit.

Example entries and their recorded answers appear below.
| Compound | Target Entity | Unit Abbreviation | % of control remaining |
| --- | --- | --- | --- |
| Cc1cc(C(=O)CCl)c(C)n1-c1ccc(Cl)c(Cl)c1 [10-D18] | V. cholerae SAD30 | % | 108.475 |
| O=C1CCCc2cc(C(=O)CCl)ccc2N1 [10-M20] | V. cholerae SAD30 | % | 94.6035 |
| O=C1CCc2cc(C(=O)CCl)c(F)cc2N1 [10-O20] | V. cholerae SAD30 | % | 36.6258 |
| C=CC(=O)NCc1ccc(S(=O)(=O)NC2CC2)cc1 [2-P19] | V. cholerae SAD30 | % | 96.8349 |
| Cc1nn(CCC(=O)N2CCSSCC2)c(C)c1[N+](=O)[O-] [10-J05] | V. cholerae SAD30 | % | 92.1099 |
| Cc1noc(C)c1COC1CCN(C(=O)C(C)Cl)C1 (centres unmarked) [7-O14] | V. cholerae SAD30 | % | 78.3744 |

**Query** Using the record for CC(Cl)C(=O)Nc1nc(-c2ccccc2)cs1 (centres unmarked) [6-L10] , report its % of control remaining.
**Result** 85.6953

**Query** Now the same for C=CC(=O)NCCc1ccn(-c2ccc(F)cc2)n1 [2-P03]
**Result** 113.818

**Query** Try this compound too: CC(Cl)C(=O)N1CCn2c(C#N)ccc2C1C (centres unmarked) [6-F22]
**Result** 96.0091

**Query** Okay, and C=CC(=O)N1CCCC(c2nn(C)cc2C(N)=O)C1 (centres unmarked) [1-D07] ?
**Result** 92.9746

**Query** Queued: CC(Cl)C(=O)Nc1ccc(F)c(F)c1F (centres unmarked) [4-O08]
**Result** 95.579

====

The entries below are paired with their reported % of control remaining.
System: V. cholerae SAD30
Construct: SAD30
Design: species or system S. aureus MSSA476 (TSB) or V. cholerae SAD30 (LB); 384-well bacterial growth screen at 25 uM, OD600 relative to DMSO control
Test Settings: relative growth, OD600, LB; 25 µM; inhibitor
About 110 (3.4%) of roughly 3,200 compounds showed an effect of 50% or more. This excerpt belongs to a sample that is enriched for strong results.
Give just the number in %; leave the unit off.

// below: answered compounds
| Compound | Target Entity | % of control remaining, % |
| --- | --- | --- |
| O=C(CCl)NCCOc1cccc(F)c1 [6-G03] | V. cholerae SAD30 | 108.75 |
| C=CC(=O)N1CCC(C(=O)N2CCC[C@H]2c2ncn[nH]2)CC1 [2-D12] | V. cholerae SAD30 | 91.1223 |
| CC(Cl)C(=O)N(C)Cc1ccccc1 (stereo not shown) [6-I13, N-benzyl-2-chloro-N-methylpropanamide] | V. cholerae SAD30 | 78.87 |
| O=C(CCl)c1ccc2c(c1)-c1ccccc1C2 [10-H17, 2-chloro-1-(9H-fluoren-3-yl)ethan-1-one] | V. cholerae SAD30 | 91.4865 |
| COc1ccc(C(=O)CCl)cc1Cl [10-D10] | V. cholerae SAD30 | 0.9351 |
| Cc1cc(NC(=O)CCl)n(-c2ccccc2)n1 [4-G05] | V. cholerae SAD30 | 102.825 |

**Query** Entry O=C(CCl)c1ccc(Cl)c(Cl)c1 [10-L16] : reported % of control remaining = ?
**Result** 0

**Query** Repeat with C=CC(=O)N1CCC(C(=O)N2CCN(c3ccnc(C)n3)CC2)CC1 [2-L06]
**Result** 88.9607

**Query** Now the same for C=CC(=O)NCc1cnc(-c2ccc(C(F)(F)F)cc2)s1 [1-C13]
**Result** 68.9088

**Query** What do we get for O=C(CCl)c1ccc2[nH]c(=O)[nH]c2c1 [10-I14] ?
**Result** 105.513
